Values were extracted from paper PMC11472320.

Known Recovery% (BL-AP) of a selection of molecules
- Tested on: MDCKII-MDR1 cells
- procedureDetails: MDCKII-MDR1 permeability
- conditionParameters: Table S7
propertyMeasured: Recovery% (BL-AP) (%)

1. COc1cc2c(Nc3cccc(OC)c3Cl)c(C#N)cnc2cc1OCCON1CCN(C)CC1 [12a]; 91.60
2. COc1cc(Nc2c(C#N)cnc3cc(OCCON4CCN(C)CC4)c(OC)cc23)c(F)cc1Cl [8a]; 64.87
3. COc1cc2c(Nc3cccc(OC)c3F)c(C#N)cnc2cc1OCCON1CCN(C)CC1 [13a]; 105.61
4. COc1cc(Nc2c(C#N)cnc3cc(OCCON4CCN(C)CC4)c(OC)cc23)ccc1Cl [14a]; 77.51
5. C[C@H]1O[C@@H](O[C@H]2[C@@H](O)C[C@H](O[C@H]3[C@@H](O)C[C@H](O[C@H]4CC[C@@]5(C)[C@H](CC[C@@H]6[C@@H]5C[C@@H](O)[C@]5(C)[C@@H](C7=CC(=O)OC7)CC[C@]65O)C4)O[C@@H]3C)O[C@@H]2C)C[C@H](O)[C@@H]1O [Digoxin, reference compound]; 93.20

----------
Known Papp A→B of a selection of compounds
- Test system: MDR1
- procedureDetails: in vitro
- conditionParameters: dog, MDCK-MDR1
propertyMeasured: Papp A→B (×10⁻⁶ cm/s)

1) COc1cc2c(Nc3cccc(Cl)c3F)c(C#N)cnc2cc1OCCON1CCN(C)CC1 [11a]; 7.16
2) C[C@H]1O[C@@H](O[C@H]2[C@@H](O)C[C@H](O[C@H]3[C@@H](O)C[C@H](O[C@H]4CC[C@@]5(C)[C@H](CC[C@@H]6[C@@H]5C[C@@H](O)[C@]5(C)[C@@H](C7=CC(=O)OC7)CC[C@]65O)C4)O[C@@H]3C)O[C@@H]2C)C[C@H](O)[C@@H]1O [Digoxin, reference compound]; 0.62
3) COc1cc(Nc2c(C#N)cnc3cc(OCCON4CCN(C)CC4)c(OC)cc23)ccc1Cl [14a]; 4.08
4) COCCc1ccc(OCC(O)CNC(C)C)cc1 (stereo not shown) [Metoprolol, reference compound]; 31.6

----------
- Tested on: MDCKII-MDR1 cells
- procedureDetails: MDCKII-MDR1 permeability
- conditionParameters: Table S7
propertyMeasured: Recovery% (BL-AP) (%)

1. COCCc1ccc(OCC(O)CNC(C)C)cc1 (stereo not drawn) [Metoprolol, reference compound]; 99.15
2. COc1cc2c(Nc3cccc(Cl)c3F)c(C#N)cnc2cc1OCCON1CCN(C)CC1 [11a]; 85.59
3. COc1cc(Cl)ccc1Nc1c(C#N)cnc2cc(OCCON3CCN(C)CC3)c(OC)cc12 [15a]; 72.29

----------
- procedureDetails: Lipophilicity logD7.4
- Assay type: physicochemical
- conditionParameters: pH 7.4
Known logD of a selection of compounds
propertyMeasured: logD

1. COc1cc(Nc2c(C#N)cnc3cc(OCCON4CCN(C)CC4)c(OC)cc23)ccc1Cl [14a]; 3.1
2. COc1cc2c(Nc3cccc(OC)c3F)c(C#N)cnc2cc1OCCON1CCN(C)CC1 [13a]; 2.6
3. COc1cc(Nc2c(C#N)cnc3cc(OCCON4CCN(C)CC4)c(OC)cc23)c(F)cc1Cl; 3.4
4. COc1cc2c(Nc3cccc(OC)c3Cl)c(C#N)cnc2cc1OCCON1CCN(C)CC1 [12a]; 2.7
5. COc1cc(Cl)ccc1Nc1c(C#N)cnc2cc(OCCON3CCN(C)CC3)c(OC)cc12 [15a]; 3.1
6. COc1cc2c(Nc3cccc(Cl)c3F)c(C#N)cnc2cc1OCCON1CCN(C)CC1 [11a]; 3.3
